Form: system (HCT-15), quantity (GI50), values below.

Answered examples (2):
* O=C1OCC2OC(=O)c3cc(O)c(O)c(O)c3-c3c(O)c(O)c(O)c4c3C(=O)OC(C2OC(=O)c2cc(O)c(O)c(O)c2-c2c1cc(O)c(O)c2O)C1OC(=O)C2C4=C(O)C(=O)C23Oc2cc(O)c4c(c2[C@H]13)O[C@H](c1ccc(O)c(O)c1)[C@@H](O)C4 (stereo partly drawn) | 18.4 µM
* COc1ccc(-c2cc3[nH]nc(N)c3c(=O)o2)cc1 | > 100 µM

Field: next molecule
Give me measured GI50, please, for this molecule: CC1CC/C(=C\c2ccc(F)cc2)C2=C1C(c1ccc(F)cc1)n1c(s/c(=C/c3cccc(Br)c3)c1=O)=N2 (stereo not drawn)
> 100 µM

----------
GI50 listing for selected molecules.
- System: KM12
- protocol: NCI tumour cell line growth inhibition, 48 h
The source made the active and inactive calls. Cut-off read from the data, not from the text of the source: active = GI50 up to about 1.1 µM and inactive = higher.

- O=C(/C=C/c1cccs1)c1ccc(Cl)cc1: 43.9 µM (inactive)
- COc1ccc2c(c1)C(=O)/C(=C/c1ccccc1)C2: > 100 µM (inactive)
- CC(=O)OCc1nnn2c1CCC2: > 100 µM (inactive)
- Cc1ccc(OCC2OC(n3cnc4nc(Nc5ccc(Cl)c(Cl)c5)nc(Cl)c43)CC2Oc2ccc(C)cc2)cc1 (stereo not drawn): > 100 µM (inactive)
- COC(=O)CCc1cc(OC)c2c(c1)[C@H](C(=O)OC)[C@@H](c1ccc(O)c(OC)c1)O2: 30.6 µM (inactive)

Give me measured GI50, please, for this molecule: O=C(NNC(=O)c1ccccc1S)c1ccccc1S [BIS(THIOSALICYL)HYDRAZIDE]
24.5 µM (inactive)

Give me measured GI50, please, for this molecule: CC1(C)N=C(N)N=C(N)N1c1cccc(Cl)c1
7.98 µM (inactive)

Give me measured GI50, please, for this molecule: CC(C)(C)S(=O)OC12CC3CC(CC(C3)C1)C2 (stereo not drawn)
> 10 µM (inactive)

Give me measured GI50, please, for this molecule: CCOP(=O)(OCC)C(N)c1ccc(Cl)cc1 (stereo not drawn)
> 100 µM (inactive)

----------
GI50 listing for selected compounds.
- Tested on: TK-10
- protocol: NCI tumour cell line growth inhibition, 48 h
The source made the active and inactive calls. Cut-off read from the data, not from the text of the source: active = GI50 up to about 1.1 µM and inactive = higher.

Answered examples (8):
• COc1cc(C2C(Cl)C(=O)N2c2c(C)n(C)n(-c3ccccc3)c2=O)ccc1O (stereo not given) = 24.7 µM (inactive)
• COC(=O)C(I(OS(=O)(=O)c1ccc(C)cc1)c1ccccc1)=P(c1ccccc1)(c1ccccc1)c1ccccc1 = 23.6 µM (inactive)
• O=C(O)c1ccc2c(O)c(O)ccc2c1 = 13.8 µM (inactive)
• Cc1ccc(NC(=O)CSc2nnc(Cc3ccccc3)o2)c(C)c1 = > 100 µM (inactive)
• Cc1cc(N(CCC#N)CCC#N)ccc1/C=C1N=C(/C=C\c2ccccc2)OC\1=O = > 100 µM (inactive)
• COc1cccc2c1[C@]1(O)C(O)CCCC21 (stereo not given in full) = > 100 µM (inactive)
• COC(=O)C1(Cc2ccccc2)Cc2c(C)ccc(C)c2C1=O (stereo not given) = 49 µM (inactive)
• CC(C)C1CC(CO)(CNc2cc(Cl)nc(N)n2)C1 (stereo not given) = > 100 µM (inactive)

State GI50 on TK-10. Entry: Cn1c(=O)c2[nH]c(/N=N\n3ccc4ccccc43)nc2n(C)c1=O
> 100 µM (inactive)

State GI50 on TK-10. Entry: CC1OC(OC2C(OC(=O)[C@]34CCC(C)(C)C[C@H]3C3=CC[C@@H]5[C@@]6(C)CC[C@H](OC7OC(CO)C(O)C(O)C7OC7OC(CO)C(O)C(O)C7O)C(C)(C)[C@@H]6CC[C@@]5(C)[C@]3(C)CC4)OCC(O)C2O)C(O)C(O)C1OC1OCC(O)C(O)C1O (stereo not given in full)
8.51 µM (inactive)
